assayNotes: growth inhibition, single agents and combos, HTB85, cell-based, BGB or cisplatin IC20 combos, synergistic combos for chromothripsis tumors (AID 1671453);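 further: cells exposed for 96 hours before readout; 0% = vehicle DMSO and 100% = high DMSO killing control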
runParameters: HTB85 osteosarcoma cells, drug combinations, measured here: with BGB IC20, at 5 µM, stronger effect = higher value
compounds and their reported inhibition
Provide the reading as a plain figure in %.

Take a look at these entries with their results.
>  <compound>
CC1OC(n2cc(F)c(=O)[nH]c2=O)C(O)C1O (centres undefined)

>  <inhibition / %>
-31

$$$$
>  <compound>
NC(=S)NN=Cc1ncccc1N

>  <inhibition / %>
67.1

$$$$
>  <compound>
Nc1ccn(C2CCC(CO)O2)c(=O)n1 (centres undefined)

>  <inhibition / %>
-10

$$$$
>  <compound>
CN(C)C(=S)NN=C(c1ccccn1)c1ccccn1

>  <inhibition / %>
92.5

$$$$
>  <compound>
CON=C1CN(c2nc3c(cc2F)c(=O)c(C(=O)O)cn3C2CC2)CC1CN (centres undefined)

>  <inhibition / %>
13.1

$$$$

inhibition for C[C@H](NC(=O)c1ccccc1N=Cc1c(O)ccc2ccccc12)c1ccccc1 ? 7.19

Again, but for COc1ccc(CC(N)C(=O)NC2C(CO)OC(n3cnc4c(N(C)C)ncnc43)C2O)cc1 (centres undefined) 100

Again, but for Cn1cc(-c2cnn3c(N)c(Br)c([C@H]4CCCNC4)nc23)cn1 66.4

Again, but for CC1OC(CC(=O)O)CC2=C1C(=O)c1c(O)cccc1C2=O (centres undefined) 100

----------
compounds and their reported fold change
assayNotes: viability loss with induced miR-34 in A549 – imaging, A549 dox-inducible miR-34, nuclei and caspase counts, primary screen (AID 1347080)
runParameters: A549 miR-34 inducible, Hoechst nuclei count, 48 h; measured here: relative caspase fold change +Dox/-Dox
Format: numeric value only, no unit, no commentary.

Take a look at these entries with their results.
>  <compound>
O=C(c1cc(O)c(O)c([N+](=O)[O-])c1)c1ccccc1F

>  <fold change>
1.45

$$$$
>  <compound>
CCCc1cn(CC2CCCN(C(=O)c3nc4ncccn4n3)C2)nn1 (centres undefined)

>  <fold change>
1.31

$$$$
>  <compound>
CCCCC/C=C\CC(O)/C=C/c1cccc(CC(O)CCCCO)n1 (centres undefined)

>  <fold change>
1.4

$$$$

fold change for O=c1[nH]cnc2c1CN=N2 ? 1.16

Again, but for NC(C(=O)N[C@@H]1C(=O)N2C(C(=O)O)=C(Cl)CS[C@H]12)c1ccccc1 (some centres undefined) 2.15

Again, but for O=C(Nc1c[nH]c2ccccc12)c1cccnc1 1.08

----------
assayNotes: UWB1.289_BRCA1 ovarian cancer growth, cell-based, BGB or cisplatin combinations (AID 1671459)
runParameters: UWB1.289 BRCA1 ovarian carcinoma, drug combinations, BGB combination, concentration series, at 5 µM, stronger effect = higher value
Non-standard residues stand in square brackets, D forms with d. Residues, ends and D or L forms follow the SMILES beside them. Dolaproine = CO[C@@H]([C@@H]1CCCN1)[C@@H](C)C(=O)O; Dil = CC[C@H](C)[C@H](NC)[C@@H](CC(=O)O)OC; NMeV = CN[C@H](C(=O)O)C(C)C
reportedEndpoint: inhibition
Number first, unit second: that is the form wanted.

Take a look at these entries with their results.
>  <compound>
CC[C@H](C)[C@@H]([C@@H](CC(=O)N1CCC[C@H]1[C@H](OC)[C@@H](C)C(=O)N[C@@H](Cc1ccccc1)C(=O)O)OC)N(C)C(=O)[C@@H](NC(=O)[C@@H](NC)C(C)C)C(C)C (H-[NMeV]V[Dil][Dolaproine]F-OH)

>  <result>
49.3%

$$$$
>  <compound>
O=c1[nH]cnc2c1ncn2C1CCC(CO)O1 (centres undefined)

>  <result>
-6.99%

$$$$

inhibition for O=c1cc(-c2ccc(O)cc2)[nH]c(=S)[nH]1 ? -21.3%

Again, but for Cc1cn(C2CC(O)C(COP(=O)(O)OP(=O)(O)OP(=O)(O)O)O2)c(=O)[nH]c1=O (centres undefined) 5.28%

Again, but for COc1ccc(-c2nc(-c3cc(C(F)(F)F)cc(C(F)(F)F)c3)n(Cc3ccc(C(N)=O)cc3)c2-c2ccc(OC)cc2)cc1 4.42%

Again, but for O=c1ccn(C2CC(O)C(CO)O2)c(=O)[nH]1 (centres undefined) -3.77%

Again, but for Cc1cc(C#N)cc(C)c1Oc1nc(Nc2ccc(C#N)cc2)nc(N)c1Br 11.2%
